B1: OR4K15 (parent)
chain: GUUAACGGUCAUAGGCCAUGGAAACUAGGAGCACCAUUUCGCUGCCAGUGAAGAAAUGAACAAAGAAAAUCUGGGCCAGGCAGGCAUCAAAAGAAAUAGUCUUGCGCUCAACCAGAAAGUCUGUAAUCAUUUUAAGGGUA

variants of: B1; experiment: self-cleavage, relative activity (ratio to wild type); higher = more cleavage; in vitro, sequencing; the parent is a self-cleaving ribozyme
measured.metric: self-cleavage

A66G U130A	0.6
A114G A135U	0.15
A22U A66G	1.5
U108G A126G	0
